- Assay details: In vivo pharmacokinetics in mice bearing intracerebral U87 tumors
- Design: species or system mouse
- Test settings: NIH Swiss nude, mouse, plasma, iv, 5 mg/kg, Vss, plasma; ON123300 5 mg/kg IV
Reported endpoint: Vd (L/kg)
I only need the number, in L/kg, no unit after it.

Prompt line: Which Vd reading was recorded for the compound CN1CCN(c2ccc(Nc3ncc4cc(C#N)c(=O)n(C5CCCC5)c4n3)cc2)CC1 [ON123300] ?
Response line: 3.6

###

- Assay details: In vivo pharmacokinetics in mice bearing intracerebral U87 tumors
- Set-up: species or system mouse
- Test settings: NIH Swiss nude, mouse, plasma, iv, 5 mg/kg, CL; ON123300 5 mg/kg IV
Reported endpoint: clearance
Write the numeric value and follow it with the unit.

Prompt line: Sample CN1CCN(c2ccc(Nc3ncc4cc(C#N)c(=O)n(C5CCCC5)c4n3)cc2)CC1 [ON123300] — what was its clearance?
Response line: 69.1 mL/min/kg

###

- Assay details: In vivo pharmacokinetics in mice bearing intracerebral U87 tumors
- Set-up: species or system mouse
- Test settings: NIH Swiss nude, mouse, brain tumor, iv, 5 mg/kg, AUCbt; ON123300 5 mg/kg IV
Reported endpoint: AUC (ng·h/mL)
Your answer should be a plain number; it is taken to be in ng·h/mL.

Prompt line: What AUC value was documented for this compound, `CN1CCN(c2ccc(Nc3ncc4cc(C#N)c(=O)n(C5CCCC5)c4n3)cc2)CC1` ?
Response line: 6890

###

- Assay details: In vivo pharmacokinetics in mice bearing intracerebral U87 tumors
- Design: species or system mouse
- Test settings: NIH Swiss nude, mouse, plasma, iv, 25 mg/kg, t½; ON123300 25 mg/kg IV
Reported endpoint: half-life (h)
Please state the figure in h; there is no need to write the unit.

Prompt line: Find the recorded half-life belonging to CN1CCN(c2ccc(Nc3ncc4cc(C#N)c(=O)n(C5CCCC5)c4n3)cc2)CC1 [ON123300] and report it.
Response line: 1.5

###

- Assay details: In vivo pharmacokinetics in mice bearing intracerebral U87 tumors
- Set-up: species or system mouse
- Test settings: NIH Swiss nude, mouse, plasma, iv, 25 mg/kg, AUCp; ON123300 25 mg/kg IV
Reported endpoint: AUC (ng·h/mL)
// note: answer is a bare numeric in ng·h/mL

Prompt line: Find the recorded AUC belonging to `CN1CCN(c2ccc(Nc3ncc4cc(C#N)c(=O)n(C5CCCC5)c4n3)cc2)CC1` and report it.
Response line: 4220

###

- Assay details: In vivo pharmacokinetics in mice bearing intracerebral U87 tumors
- Design: species or system mouse
- Test settings: NIH Swiss nude, mouse, brain, iv, 25 mg/kg, AUCb; ON123300 25 mg/kg IV
Reported endpoint: AUC
Lab note: write values as number then unit, every time.

Prompt line: I am curious: what AUC value has been reported for `CN1CCN(c2ccc(Nc3ncc4cc(C#N)c(=O)n(C5CCCC5)c4n3)cc2)CC1` ?
Response line: 11700 ng·h/mL

###

- Assay details: In vivo pharmacokinetics in mice bearing intracerebral U87 tumors
- Set-up: species or system mouse
- Test settings: NIH Swiss nude, mouse, brain, iv, 5 mg/kg, AUCb; ON123300 5 mg/kg IV
Reported endpoint: AUC
Just the number plus its unit, please.

Prompt line: If you can, please state the reported AUC value of `CN1CCN(c2ccc(Nc3ncc4cc(C#N)c(=O)n(C5CCCC5)c4n3)cc2)CC1` .
Response line: 3120 ng·h/mL

###

- Assay details: In vivo pharmacokinetics in mice bearing intracerebral U87 tumors
- Set-up: species or system mouse
- Test settings: NIH Swiss nude, mouse, brain tumor, iv, 25 mg/kg, AUCbt, brain tumor; ON123300 25 mg/kg IV 1 h after oral 200 mg/kg GFN
Reported endpoint: AUC (ng·h/mL)
Reply with just the number (in ng·h/mL).

Prompt line: Sample `CN1CCN(c2ccc(Nc3ncc4cc(C#N)c(=O)n(C5CCCC5)c4n3)cc2)CC1` — what was its AUC?
Response line: 49400

###

- Assay details: In vivo pharmacokinetics in mice bearing intracerebral U87 tumors
- Parameters: species or system mouse
- Test settings: NIH Swiss nude, mouse, plasma, iv, 25 mg/kg, Vss, plasma; ON123300 25 mg/kg IV
Reported endpoint: Vd (L/kg)
Numeric answer only, unit L/kg assumed.

Prompt line: Quick one: Vd for `CN1CCN(c2ccc(Nc3ncc4cc(C#N)c(=O)n(C5CCCC5)c4n3)cc2)CC1` ?
Response line: 10.2

###

- Assay details: In vivo pharmacokinetics in mice bearing intracerebral U87 tumors
- Design: species or system mouse
- Test settings: NIH Swiss nude, mouse, brain tumor, iv, 25 mg/kg, Tmax brain tumor; ON123300 25 mg/kg IV
Reported endpoint: Tmax (h)
Expressed in h, but write only the number.

Prompt line: Data request, read-out Tmax, for CN1CCN(c2ccc(Nc3ncc4cc(C#N)c(=O)n(C5CCCC5)c4n3)cc2)CC1 [ON123300]
Response line: 1

###

- Assay details: In vivo pharmacokinetics in mice bearing intracerebral U87 tumors
- Design: species or system mouse
- Test settings: NIH Swiss nude, mouse, brain tumor, iv, 5 mg/kg, Pbt (brain tumor partition coefficient, AUCbt/AUCp), ON123300 5 mg/kg IV
Reported endpoint: Kp
Simply state the number, no unit and no words.

Prompt line: Which Kp reading was recorded for the compound CN1CCN(c2ccc(Nc3ncc4cc(C#N)c(=O)n(C5CCCC5)c4n3)cc2)CC1 [ON123300] ?
Response line: 5.7

###

- Assay details: In vivo pharmacokinetics in mice bearing intracerebral U87 tumors
- Parameters: species or system mouse
- Test settings: NIH Swiss nude, mouse, plasma, iv, 5 mg/kg, AUCp; ON123300 5 mg/kg IV
Reported endpoint: AUC (ng·h/mL)
# output: bare number, implied unit ng·h/mL

Prompt line: Item `CN1CCN(c2ccc(Nc3ncc4cc(C#N)c(=O)n(C5CCCC5)c4n3)cc2)CC1` has what recorded AUC?
Response line: 1210

###

- Assay details: In vivo pharmacokinetics in mice bearing intracerebral U87 tumors
- Set-up: species or system mouse
- Test settings: NIH Swiss nude, mouse, plasma, iv, 5 mg/kg, t½; ON123300 5 mg/kg IV
Reported endpoint: half-life (min)
Respond numerically; units are min and should not be typed.

Prompt line: What value of half-life has been recorded for this entry: `CN1CCN(c2ccc(Nc3ncc4cc(C#N)c(=O)n(C5CCCC5)c4n3)cc2)CC1`
Response line: 90
